Sourced from patent US12064516B2

Protocol text: Pharmacokinetic comparison of ADX-102 (reproxalap) and compound I-1 in rats
Assay type: in vivo, Sprague-Dawley rats
Experimental context: Sprague-Dawley, in vivo; SD Rat; intravenous data using captisol formulation
Parameter: clearance (mL/min/kg)
Give a bare numeral; the unit mL/min/kg is implied.

Q: May I ask what clearance has been recorded for CC(C)(O)c1nc2ccccc2cc1N [I-1] ?
A: 65.8

###

Protocol text: Phase 1 clinical trial, multiple ascending dose (MAD) pharmacokinetics
Format: in vivo, human
Experimental context: human, in vivo, po, 600 mg, oral 600 mg BID; Day 10; read-out: Mean t1/2 (converted)
Parameter: half-life (h)
Please state the figure in h; there is no need to write the unit.

Q: For CC(C)(O)c1nc2ccccc2cc1N [I-1] , what is its reported half-life?
A: 4.66

###

Protocol text: Pharmacokinetics of compound I-1 in the dog by intravenous, oral gavage and oral capsule routes
Type: in vivo, beagle dogs
Experimental context: male, beagle, dog, plasma, oral, 7 mg/kg, Group 3: PO Capsule 7 mg/kg; 4 h; Subject 1; read-out: Concentration at time point
Parameter: concentration at 4 h (ng/mL)
Just the number please, in ng/mL, no unit attached.

Q: Which concentration at 4 h value belongs to CC(C)(O)c1nc2ccccc2cc1N [I-1] ?
A: 1070

###

Protocol text: Pharmacokinetics of compound I-1 in the dog by intravenous, oral gavage and oral capsule routes
Assay type: in vivo, beagle dogs
Experimental context: male, beagle, dog, plasma, po, 10 mg/kg, Oral Gavage 0.5% Methylcellulose 10 mg/kg; Average
Parameter: Tmax (min)
Provide the reading as a plain figure in min.

Q: # input compound: CC(C)(O)c1nc2ccccc2cc1N [I-1] ; wanted: its Tmax
A: 31.1

###

Protocol text: Pharmacokinetics of compound I-1 in the dog by intravenous, oral gavage and oral capsule routes
Format: in vivo, beagle dogs
Experimental context: male, beagle, dog, plasma, po, 7.2 mg/kg, 100 mg Capsule, average dose 7.2 mg/kg; Subj1
Parameter: Tmax (h)
Just the number in h, nothing appended.

Q: Using the record for "CC(C)(O)c1nc2ccccc2cc1N" , report its Tmax.
A: 2.57

###

Protocol text: Pharmacokinetics of compound I-1 in the dog by intravenous, oral gavage and oral capsule routes
Assay type: in vivo, beagle dogs
Experimental context: male, beagle, dog, plasma, iv, 3 mg/kg, Group 1: IV 3 mg/kg; 8 h; Subject 1; read-out: Concentration at time point
Method: A pharmacokinetic study was conducted to compare the bioavailability of capsule and suspension oral formulations vs. an intravenous formulations. The standard curve was prepared from 1 to 2,000 ng/mL. QC samples were prepared at 30, 30, and 750 ng/mL. […] The resulting supernatants were analyzed by LCMS. […] The I-1 100 mg capsules are manufactured as a non-sterile spray dried, granulated powder blend. […] The quantitative composition of the I-1 100 mg capsule is presented above in Table B. […]
Parameter: concentration at 8 h (ng/mL)
Form entry: value (ng/mL) — number only.

Q: Item "CC(C)(O)c1nc2ccccc2cc1N" has what recorded concentration at 8 h?
A: 49

###

Protocol text: Phase 1 clinical trial, single ascending dose (SAD) pharmacokinetics
Assay type: in vivo, human
Experimental context: human, in vivo, po, 200 mg, healthy volunteers; oral single dose 200 mg
Parameter: half-life (min)
All answers are understood in min, so give the number only.

Q: Requested read-out: half-life. Entry: CC(C)(O)c1nc2ccccc2cc1N [I-1]
A: 362
